Source of measurements: paper PMC7252619

target: CK1d (Homo sapiens); construct: purchased ReactionBiology; test: Kinase activity test (ReactionBiology), % enzyme activity relative to DMSO; type: biochemical; conditions: CK1d; 10 uM; Average
Sequence (P48730 whole entry): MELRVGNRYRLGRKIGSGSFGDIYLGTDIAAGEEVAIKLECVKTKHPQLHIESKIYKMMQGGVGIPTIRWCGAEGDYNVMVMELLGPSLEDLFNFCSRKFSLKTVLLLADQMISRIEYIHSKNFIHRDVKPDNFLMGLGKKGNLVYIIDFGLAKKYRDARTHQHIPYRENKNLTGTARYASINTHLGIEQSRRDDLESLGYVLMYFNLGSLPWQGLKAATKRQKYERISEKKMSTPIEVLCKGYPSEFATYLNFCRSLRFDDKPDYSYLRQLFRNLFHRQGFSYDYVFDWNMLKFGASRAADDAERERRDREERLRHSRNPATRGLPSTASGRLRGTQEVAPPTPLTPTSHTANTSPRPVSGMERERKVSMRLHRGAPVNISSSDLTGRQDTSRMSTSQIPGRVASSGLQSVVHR
Readout Type: % Enzyme Activity (relative to DMSO controls), Average (%)
Field format: number, assumed %, no unit text.

Sample answers from the record:
CC(C)Nc1cccnc1N1CCN(C(=O)c2cc3cc(NS(C)(=O)=O)ccc3[nH]2)CC1
101.06
Cc1ccc(Nc2c(F)cccc2Cl)c(CC(=O)O)c1
99.41
CCC1=C(C)CN(C(=O)NCCc2ccc(S(=O)(=O)NC(=O)N[C@H]3CC[C@H](C)CC3)cc2)C1=O [Glimepiride]
89.28
CN1CC(=O)N2[C@H](c3ccc4c(c3)OCO4)c3[nH]c4ccccc4c3C[C@@H]2C1=O
108.37
O=c1[nH]cc(F)c(=O)[nH]1
106.01
C[C@H]1O[C@@H](O[C@H]2[C@@H](O)C[C@H](O[C@H]3[C@@H](O)C[C@H](O[C@H]4CC[C@@]5(C)[C@H](CC[C@@H]6[C@@H]5C[C@@H](O)[C@]5(C)[C@@H](C7=CC(=O)OC7)CC[C@]65O)C4)O[C@@H]3C)O[C@@H]2C)C[C@H](O)[C@@H]1O
100.70
CCCCNc1ccc(C(=O)OCCN(C)C)cc1
118.78
CO[C@@]12[C@H](COC(N)=O)C3=C(C(=O)C(C)=C(N)C3=O)N1C[C@@H]1N[C@@H]12
158.59

Here's the next entry for you.
Inquiry: Reported % Enzyme Activity (relative to DMSO controls), Average for CC1=Nc2ccc(Cl)cc2S(=O)(=O)N1 [Diazoxide] : what is it?
Reply text: 97.15

====

biological target: DAPK1 (Homo sapiens); construct: purchased ReactionBiology; assay: Kinase activity test (ReactionBiology), % enzyme activity relative to DMSO; assay type: biochemical; conditions: DAPK1; 1 uM; Average
Sequence (P53355 whole entry): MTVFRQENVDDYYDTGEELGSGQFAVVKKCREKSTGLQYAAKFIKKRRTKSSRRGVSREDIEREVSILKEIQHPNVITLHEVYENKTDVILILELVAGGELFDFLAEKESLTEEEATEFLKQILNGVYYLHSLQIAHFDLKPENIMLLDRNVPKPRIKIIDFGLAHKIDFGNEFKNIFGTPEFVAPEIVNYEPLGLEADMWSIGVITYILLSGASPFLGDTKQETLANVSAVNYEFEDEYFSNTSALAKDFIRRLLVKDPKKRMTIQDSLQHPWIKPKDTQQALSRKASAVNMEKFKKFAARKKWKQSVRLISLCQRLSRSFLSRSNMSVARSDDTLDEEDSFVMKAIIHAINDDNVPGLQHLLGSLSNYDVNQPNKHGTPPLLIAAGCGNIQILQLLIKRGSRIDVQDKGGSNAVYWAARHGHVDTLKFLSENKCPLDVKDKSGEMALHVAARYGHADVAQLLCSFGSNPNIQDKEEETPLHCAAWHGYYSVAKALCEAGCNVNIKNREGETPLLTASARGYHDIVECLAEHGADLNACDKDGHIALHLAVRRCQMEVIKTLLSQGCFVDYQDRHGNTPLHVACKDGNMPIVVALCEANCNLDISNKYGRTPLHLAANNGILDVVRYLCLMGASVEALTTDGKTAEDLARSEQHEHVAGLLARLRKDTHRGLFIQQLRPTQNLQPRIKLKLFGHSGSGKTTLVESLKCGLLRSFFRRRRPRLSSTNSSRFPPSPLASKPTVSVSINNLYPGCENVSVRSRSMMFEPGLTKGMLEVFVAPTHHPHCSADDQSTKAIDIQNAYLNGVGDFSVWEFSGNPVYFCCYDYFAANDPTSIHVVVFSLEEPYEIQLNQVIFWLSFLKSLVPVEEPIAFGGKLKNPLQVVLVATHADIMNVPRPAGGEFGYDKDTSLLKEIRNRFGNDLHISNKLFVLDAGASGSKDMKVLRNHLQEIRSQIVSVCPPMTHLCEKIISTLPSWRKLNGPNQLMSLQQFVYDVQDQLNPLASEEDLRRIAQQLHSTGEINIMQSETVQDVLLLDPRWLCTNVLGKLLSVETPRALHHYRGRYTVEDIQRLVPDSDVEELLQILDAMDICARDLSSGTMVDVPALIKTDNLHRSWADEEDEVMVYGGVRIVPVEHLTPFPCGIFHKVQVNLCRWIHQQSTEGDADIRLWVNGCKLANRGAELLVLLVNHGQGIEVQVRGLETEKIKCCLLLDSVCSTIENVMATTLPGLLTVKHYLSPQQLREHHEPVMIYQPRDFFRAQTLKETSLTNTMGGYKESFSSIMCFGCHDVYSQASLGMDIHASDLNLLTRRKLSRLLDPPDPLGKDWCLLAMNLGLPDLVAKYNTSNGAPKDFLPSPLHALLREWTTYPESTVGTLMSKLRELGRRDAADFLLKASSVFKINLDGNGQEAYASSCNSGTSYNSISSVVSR
% Enzyme Activity (relative to DMSO controls), Average overview
Field format: number, assumed %, no unit text.

Sample answers from the record:
COC(=O)N[C@H](C(=O)N[C@@H](Cc1ccccc1)[C@@H](O)CN(Cc1ccc(-c2ccccn2)cc1)NC(=O)[C@@H](NC(=O)OC)C(C)(C)C)C(C)(C)C [Atazanavir]
98.48
NC[C@H](O)c1ccc(O)c(O)c1 [Norepinephrine]
102.77
CC(C)C[C@H](NC(=O)[C@H](Cc1ccccc1)NC(=O)c1cnccn1)B(O)O [Bortezomib]
99.82
N[C@H]1C(O)O[C@H](CO)[C@@H](O)[C@@H]1O (stereo partly drawn) [Glucosamine]
102.43
Cn1c(=O)c2[nH]cnc2n(C)c1=O [Theophylline]
109.44
O=C1C(O)=C([C@H]2CC[C@H](c3ccc(Cl)cc3)CC2)C(=O)c2ccccc21 [Atovaquone]
96.25
C[C@@H]1O[C@@H]1P(=O)(O)O [Fosfomycin]
101.25
CS(=O)(=O)c1ccc(C2=C(c3ccccc3)C(=O)OC2)cc1 [Rofecoxib]
107.94
Cc1ccc(Nc2c(F)cccc2Cl)c(CC(=O)O)c1 [Lumiracoxib]
98.27
C[C@]12CCC(=O)C=C1CC[C@@H]1[C@@H]2[C@@H](O)C[C@@]2(C)[C@H]1CC[C@]2(O)C(=O)CO [Hydrocortisone]
114.18

Inquiry: Reported % Enzyme Activity (relative to DMSO controls), Average for Cc1ccnc2c1NC(=O)c1cccnc1N2C1CC1 [Nevirapine] : what is it?
Reply text: 112.57

Inquiry: Reported % Enzyme Activity (relative to DMSO controls), Average for O=C(N[C@H](CO)[C@H](O)c1ccc([N+](=O)[O-])cc1)C(Cl)Cl [Chloramphenicol] : what is it?
Reply text: 109.45

Inquiry: Reported % Enzyme Activity (relative to DMSO controls), Average for OC(Cn1cncn1)(Cn1cncn1)c1ccc(F)cc1F [Fluconazole] : what is it?
Reply text: 100.65

Inquiry: Reported % Enzyme Activity (relative to DMSO controls), Average for CN1[C@@H]2CC[C@H]1C[C@@H](OC(=O)c1c[nH]c3ccccc13)C2 [Tropisetron] : what is it?
Reply text: 100.48

Inquiry: Reported % Enzyme Activity (relative to DMSO controls), Average for C=C[C@H]1CN2CC[C@H]1C[C@@H]2[C@@H](O)c1ccnc2ccc(OC)cc12 [Quinidine] : what is it?
Reply text: 102.25

====

biological target: CK1d (Homo sapiens); construct: purchased ReactionBiology; test: Kinase activity test (ReactionBiology), % enzyme activity relative to DMSO; assay type: biochemical; details: CK1d; 1 uM; replicate Data 2; read-out: % Enzyme Activity (relative to DMSO controls), Data 2
remaining activity at 1 µM overview
Field format: number, assumed %, no unit text.

Sample answers from the record:
N[C@@H](Cc1cc(I)c(Oc2cc(I)c(O)c(I)c2)c(I)c1)C(=O)O [Thyroxine, reference compound]
106
CC/C(=C(/CC)c1ccc(O)cc1)c1ccc(O)cc1 [Diethylstilbestrol, reference compound]
104
Cc1nc(Nc2ncc(C(=O)Nc3c(C)cccc3Cl)s2)cc(N2CCN(CCO)CC2)n1 [Dasatinib, reference compound]
102
CC(=O)O[C@H]1C[C@@]2(C)[C@@H](C[C@@H](O)[C@H]3[C@@]4(C)CC[C@@H](O)[C@@H](C)[C@@H]4CC[C@@]32C)/C1=C(\CCC=C(C)C)C(=O)O [Fusidic acid]
105
Nc1ncnc2c1ncn2[C@@H]1O[C@H](CO)[C@@H](O)[C@H]1O [Adenosine, reference compound]
88.9
Cc1cccc(C)c1OCC(=O)N[C@@H](Cc1ccccc1)[C@@H](O)C[C@H](Cc1ccccc1)NC(=O)[C@H](C(C)C)N1CCCNC1=O [Lopinavir, reference compound]
102

Here's the next entry for you.
Inquiry: Reported remaining activity at 1 µM for CCCc1nc(C)c2c(=O)[nH]c(-c3cc(S(=O)(=O)N4CCN(CC)CC4)ccc3OCC)nn12 [Vardenafil] : what is it?
Reply text: 104

====

target: VEGFR2 (Homo sapiens, UniProt P35968); test: Kinase activity test (ReactionBiology), % enzyme activity relative to DMSO; assay type: biochemical; set-up: purchased ReactionBiology; details: VEGFR2; 10 uM; Average; read-out: % Enzyme Activity (relative to DMSO controls), Average
Sequence (P35968 20-1356): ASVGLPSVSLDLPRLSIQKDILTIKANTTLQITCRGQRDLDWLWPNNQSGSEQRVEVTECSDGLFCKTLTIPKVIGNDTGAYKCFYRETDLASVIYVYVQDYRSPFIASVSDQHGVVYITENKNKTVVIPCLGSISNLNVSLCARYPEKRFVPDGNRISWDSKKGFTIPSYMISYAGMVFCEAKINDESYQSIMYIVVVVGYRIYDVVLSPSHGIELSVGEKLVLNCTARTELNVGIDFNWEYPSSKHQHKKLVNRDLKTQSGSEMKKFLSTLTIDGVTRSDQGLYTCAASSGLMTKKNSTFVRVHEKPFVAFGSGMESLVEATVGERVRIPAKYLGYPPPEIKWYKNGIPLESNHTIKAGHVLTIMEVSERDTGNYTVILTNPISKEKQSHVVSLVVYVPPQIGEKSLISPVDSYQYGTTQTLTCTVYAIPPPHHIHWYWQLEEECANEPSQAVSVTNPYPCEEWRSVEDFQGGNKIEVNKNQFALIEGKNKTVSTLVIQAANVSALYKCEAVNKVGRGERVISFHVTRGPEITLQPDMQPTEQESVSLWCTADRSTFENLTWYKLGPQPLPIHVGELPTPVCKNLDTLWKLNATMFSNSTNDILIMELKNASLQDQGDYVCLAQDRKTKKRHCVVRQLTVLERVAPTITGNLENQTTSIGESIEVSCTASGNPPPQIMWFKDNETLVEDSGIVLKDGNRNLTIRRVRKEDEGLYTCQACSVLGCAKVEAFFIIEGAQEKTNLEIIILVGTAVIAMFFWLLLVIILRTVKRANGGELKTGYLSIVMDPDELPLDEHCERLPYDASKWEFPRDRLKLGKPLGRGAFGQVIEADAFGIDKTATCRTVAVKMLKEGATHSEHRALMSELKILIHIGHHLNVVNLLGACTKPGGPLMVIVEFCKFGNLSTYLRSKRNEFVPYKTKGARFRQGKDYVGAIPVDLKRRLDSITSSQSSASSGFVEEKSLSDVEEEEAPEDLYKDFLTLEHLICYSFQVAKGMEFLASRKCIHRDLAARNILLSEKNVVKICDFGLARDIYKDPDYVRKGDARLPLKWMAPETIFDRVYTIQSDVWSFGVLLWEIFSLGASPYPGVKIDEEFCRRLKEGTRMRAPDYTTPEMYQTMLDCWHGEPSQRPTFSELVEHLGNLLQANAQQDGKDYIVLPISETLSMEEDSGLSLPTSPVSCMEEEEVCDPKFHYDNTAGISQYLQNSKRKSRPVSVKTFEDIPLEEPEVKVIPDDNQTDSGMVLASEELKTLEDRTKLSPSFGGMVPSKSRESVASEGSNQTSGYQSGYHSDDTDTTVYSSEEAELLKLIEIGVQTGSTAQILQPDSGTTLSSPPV
Readout Type: remaining activity at 10 µM (%)
Field format: number, assumed %, no unit text.

Sample answers from the record:
C[C@]12CC[C@@H]3c4ccc(O)cc4CC[C@H]3[C@@H]1CC[C@@H]2O [Estradiol, reference compound]
105
O=C(O)c1ccccc1O [Salicylic acid]
101
NC(=O)c1cccnc1 [Niacinamide, reference compound]
95.7
N[C@@H](CC(=O)N1CCn2c(nnc2C(F)(F)F)C1)Cc1cc(F)c(F)cc1F [Sitagliptin]
99.7
N[C@@H](Cc1cc(I)c(Oc2cc(I)c(O)c(I)c2)c(I)c1)C(=O)O [Thyroxine, reference compound]
86.6
Nc1ncnc2c1ncn2[C@@H]1O[C@H](CO)[C@@H](O)[C@H]1O [Adenosine, reference compound]
98.3
Cc1ccc(C(=O)Nc2ccc(S(=O)(=O)O)c3cc(S(=O)(=O)O)cc(S(=O)(=O)O)c23)cc1NC(=O)c1cccc(NC(=O)Nc2cccc(C(=O)Nc3cc(C(=O)Nc4ccc(S(=O)(=O)O)c5cc(S(=O)(=O)O)cc(S(=O)(=O)O)c45)ccc3C)c2)c1 [Suramin, reference compound]
6.48
Cc1cccc(C)c1OCC(=O)N[C@@H](Cc1ccccc1)[C@@H](O)C[C@H](Cc1ccccc1)NC(=O)[C@H](C(C)C)N1CCCNC1=O [Lopinavir, reference compound]
99

Inquiry: Recall the recorded remaining activity at 10 µM for CC(=O)O[C@H]1C[C@@]2(C)[C@@H](C[C@@H](O)[C@H]3[C@@]4(C)CC[C@@H](O)[C@@H](C)[C@@H]4CC[C@@]32C)/C1=C(\CCC=C(C)C)C(=O)O [Fusidic acid] with VEGFR2 (Homo sapiens, UniProt P35968) and state it.
Reply text: 101

Inquiry: Recall the recorded remaining activity at 10 µM for Cc1cc(C#N)cc(C)c1Oc1nc(Nc2ccc(C#N)cc2)nc(N)c1Br [Etravirine, reference compound] with VEGFR2 (Homo sapiens, UniProt P35968) and state it.
Reply text: 41.1

Inquiry: Recall the recorded remaining activity at 10 µM for CC(C)c1nc(CN(C)C(=O)N[C@H](C(=O)N[C@@H](Cc2ccccc2)C[C@H](O)[C@H](Cc2ccccc2)NC(=O)OCc2cncs2)C(C)C)cs1 [Ritonavir, reference compound] with VEGFR2 (Homo sapiens, UniProt P35968) and state it.
Reply text: 109

Inquiry: Recall the recorded remaining activity at 10 µM for CS(=O)(=O)c1ccc(C(=O)Nc2ccc(Cl)c(-c3ccccn3)c2)c(Cl)c1 [Vismodegib] with VEGFR2 (Homo sapiens, UniProt P35968) and state it.
Reply text: 91.1

Inquiry: Recall the recorded remaining activity at 10 µM for Oc1cc(Cl)ccc1Oc1ccc(Cl)cc1Cl [Triclosan, reference compound] with VEGFR2 (Homo sapiens, UniProt P35968) and state it.
Reply text: 101
